Attribution: paper PMC7851395

- Test system: H460 cells
- protocolDetails: MTT cytotoxicity assay, H460 cells
- Type: cell-based
- runConditions: Homo sapiens, NCI-H460; H460 cells, 48 h, MTT; read-out: IC50
- Method: The cytotoxicity and viability of human NSCLC cells and normal cells were determined by MTT assay. MTT assay was performed as described previously.[22] MTT assay was used to determine the cell cytotoxicity and viability in human NSCLC cells. […] The formazan crystals were dissolved in 150 µL of DMSO, and the optical density (OD) was measured using a Microplate Reader at 490 nm. […] And half-maximal inhibitory concentration (IC50) values were determined by GraphPad Pro Prism 7.0.
pIC50: −log10 of the molar value.

# molecule, pIC50
rows = [
    ("CC(=O)OC1CCC2(C)C(CCC3C2CCC2(C)C(c4ccc(=O)oc4)CCC32O)C1 (stereo not shown)", 7.56),
]
